Assay Details: AUC in Sprague-Dawley rat plasma at 0.2 mg/kg, iv administered as cassette dose by LC-MS/MS analysis
Type: ADME, organism-based
Give measured AUC for each item. Keep answers brief.
API: value field is a number in ng·h/mL; no unit string.

Please fill in: AUC reported for `CNCc1cc(-c2cccnc2F)n(S(=O)(=O)c2ccsc2)c1` = 29

Recorded AUC (molecule `CNCc1cn(S(=O)(=O)c2cncc(F)c2)c(-c2cccnc2F)c1F` ): 38

Input `CNCc1cn(S(=O)(=O)c2cccnc2C)c(-c2cccnc2F)c1F` . Output AUC: 32

The molecule `CNCc1cn(S(=O)(=O)c2cc(C)ccn2)c(-c2cccnc2F)c1F` showed AUC equal to 35

Reported AUC of `CNCc1cn(S(=O)(=O)c2cccc(OC)n2)c(-c2cccnc2F)c1F` : 50

Record `CNCc1cn(S(=O)(=O)c2cccnc2Cl)c(-c2cccnc2F)c1F` . Reported AUC: 33

Reported AUC ( `CNCc1cc(-c2cccnc2F)n(S(=O)(=O)c2cccs2)c1` ) = 27

Recorded result, `CNCc1cn(S(=O)(=O)c2ccc(C)nc2)c(-c2cccnc2F)c1F` , AUC: 41

Lab note: `CNCc1cc(-c2cccnc2F)n(S(=O)(=O)c2cccnc2)c1` gave AUC of 35

Lab book: AUC of `CNCc1cn(S(=O)(=O)c2ccoc2)c(-c2cccnc2F)c1F` noted as 41

###

Assay Details: Lipophilicity, log D of the compound at pH 7.4 by HPLC analysis
Type: physicochemical
Measurement Conditions: buffer
I would appreciate it if you labelled entries y when logD is 0.7 or higher, otherwise n.

Query :: Textbook exercise: given the entry `CNCc1cn(S(=O)(=O)c2cnccc2C)c(-c2cccnc2F)c1F` , state whether its logD is greater than or equal to 0.7.
Result :: n

Query :: Answer whether logD of `CNCc1cn(S(=O)(=O)c2cccnc2C)c(-c2cccnc2F)c1F` is greater than or equal to 0.7.
Result :: n

Query :: Form field: logD at least 0.7? Entry: `CNCc1cn(S(=O)(=O)c2ccc(C)nc2)c(-c2cccnc2F)c1F`
Result :: n

Query :: Record `CNCc1cn(S(=O)(=O)c2ccc(F)cn2)c(-c2cccnc2F)c1F` ; criterion: logD no lower than 0.7. Met?
Result :: n

Query :: For this compound, is measured logD 0.7 or higher? `CNCc1cn(S(=O)(=O)c2cncc(C)c2)c(-c2cccnc2F)c1F`
Result :: n

Query :: Does logD meet or surpass 0.7 for `CNCc1cn(S(=O)(=O)c2ncccc2C)c(-c2cccnc2F)c1F` ?
Result :: n

Query :: Please indicate if the recorded logD for `CNCc1cn(S(=O)(=O)c2ccccn2)c(-c2cccnc2F)c1F` meets or exceeds 0.7.
Result :: n

Query :: Check this compound for logD at or above 0.7: `CNCc1cn(S(=O)(=O)c2cccs2)c(-c2cccnc2F)c1F`
Result :: n

Query :: State whether the measured logD reaches 0.7, counting equality as reaching it, for `CNCc1cn(S(=O)(=O)c2cccc(OC)n2)c(-c2cccnc2F)c1F`
Result :: y

Query :: Quick check: does `CNCc1cn(S(=O)(=O)c2cncc(Cl)c2)c(-c2cccnc2F)c1F` have logD greater than or equal to 0.7?
Result :: y

###

Assay Details: Drug uptake in Sprague-Dawley rat stomach at 0.2 mg/kg, iv administered as cassette dose after 10 mins by LC-MS/MS analysis
Type: ADME, organism-based
Measurement Conditions: read-out: Drug uptake
Exercise: for every item that follows, state its recorded concentration at 10 min.
Report only the number, with the unit ng/g understood.

Notebook: `CNCc1cn(S(=O)(=O)c2cc(C)ccn2)c(-c2cccnc2F)c1F` , concentration at 10 min read as 947

The recorded concentration at 10 min for `CNCc1cn(S(=O)(=O)c2ccco2)c(-c2cccnc2F)c1F` is 592

`CNCc1cn(S(=O)(=O)c2cccnc2Cl)c(-c2cccnc2F)c1F` yielded concentration at 10 min of 539

Value of concentration at 10 min reported for the compound `CNCc1cn(S(=O)(=O)c2cc(OC)ccn2)c(-c2cccnc2F)c1F` is 617

The measured concentration at 10 min associated with `CNCc1cn(S(=O)(=O)c2ccc(OC)cn2)c(-c2cccnc2F)c1F` reads 624

Reported concentration at 10 min of `CNCc1cc(-c2cccnc2F)n(S(=O)(=O)c2cccs2)c1` : 522

GET /value?item= `CNCc1cc(-c2cccnc2F)n(S(=O)(=O)c2cccnc2)c1` &field=concentration at 10 min returns 420

Note to self: concentration at 10 min recorded for `CNCc1cn(S(=O)(=O)c2ccoc2)c(-c2cccnc2F)c1F` was 635

// recorded concentration at 10 min for `CNCc1cn(S(=O)(=O)c2cccnc2C)c(-c2cccnc2F)c1F` : 507

`CNCc1cn(S(=O)(=O)c2cccc(C)n2)c(-c2cccnc2F)c1F` has a reported concentration at 10 min of 1080
